# System: MALME-3M melanoma
# test_name: NCI tumour cell line growth inhibition, 48 h
*1 amine or outer side, *2 acyl side, *3 side chain or, on linkers, in order; H or OH if unused. Where a SMILES comes first, the peptide text is derived from it. [ ]: non-standard residue; d: D form. The star is where a group is joined. X31 = CC(=O)N(C)SCC(N[*:1])C(=O)[*:2]; X47 = CC(=O)N(C)SCC(N*)/C(O)=N\O; Cbz = O=C(OCc1ccccc1)*; Bn = c1ccc(C*)cc1; For = O=C*
measured_parameter: TGI

INSERT INTO assay_data (molecule, assay_result) VALUES
  ('CC(=O)N(C)SCC(NC(=O)C(Cc1ccccc1)NC(=O)OCc1ccccc1)C(=O)NC(Cc1ccccc1)C(=O)NC(Cc1cn(C=O)c2ccccc12)C(=O)NC(CCCCNC(=O)OCc1ccccc1)C(=O)NC(C(=O)NC(CSN(C)C(C)=O)/C(O)=N\O)C(C)OCc1ccccc1 (stereo not drawn) (Cbz-F[X31]FW(For)K(Cbz)T(Bn)-X47; configuration not given here)', '> 100 µM'),
  ('O=C(O)C/C(=C\c1ccco1)C(=O)O', '> 100 µM'),
  ('COc1cc(/C=C/c2ccncc2)cc(OC)c1OC', '> 100 µM');

====

# System: SF-539 CNS
# test_name: NCI tumour cell line growth inhibition, 48 h
measured_parameter: GI50

INSERT INTO measurements (compound, measured_parameter, assay_result) VALUES
  ('COc1ccc2[nH]c(=O)c3c4ccccc4cn3c2c1', 'GI50', '0.657 µM'),
  ('Clc1ccc(CSC(Cn2ccnc2)c2ccc(Cl)cc2Cl)cc1 (stereo not drawn)', 'GI50', '1.73 µM'),
  ('CC(C)[C@]12O[C@H]1[C@@H]1O[C@]13[C@]1(O[C@H]1C[C@H]1C4=C(CC[C@@]13C)C(=O)OC4)[C@@H]2O', 'GI50', '0.0146 µM');

====

# Tested on: HCT-15 colon
# test_name: NCI tumour cell line growth inhibition, 48 h
measured_parameter: TGI

INSERT INTO assay_data (compound, measured_parameter, assay_result) VALUES
  ('O=C(OCc1ccccc1CN1CCOCC1)c1cccc(Br)c1', 'TGI', '> 100 µM'),
  ('Cc1cccc(C(C)C)c1NC(=O)C(=O)CC(=O)c1sc(Nc2ccccc2Cl)nc1C', 'TGI', '> 100 µM'),
  ('Oc1ccc(-c2csc(NNC3=NC/C(=C/c4ccc5c(c4)OCO5)S3)n2)cc1O', 'TGI', '> 100 µM'),
  ('COc1cc(-c2cn(S(=O)(=O)c3ccc(C)cc3)c3ccccc23)nc(-c2cn(S(=O)(=O)c3ccc(C)cc3)c3ccccc23)n1', 'TGI', '> 100 µM'),
  ('NC(Cc1ccc(S(=O)(=O)O)cc1)C(=O)NC(CCCCNC(=O)NCCCCC(NC(=O)C(N)Cc1ccc(S(=O)(=O)O)cc1)C(=O)NC(Cc1ccc(S(=O)(=O)O)cc1)C(=O)O)C(=O)NC(Cc1ccc(S(=O)(=O)O)cc1)C(=O)O (configuration not stated)', 'TGI', '> 100 µM'),
  ('O=C(/C=C/c1ccc(OCCCOc2ccc(/C=C/C(=O)c3ccccc3)cc2)cc1)c1ccccc1', 'TGI', '> 100 µM'),
  ('CCCCC[C@H](O)/C=C/[C@@H]1[C@@H](C/C=C\CCCC(=O)O)[C@@H](O)C[C@H]1O', 'TGI', '> 100 µM'),
  ('Cc1ccc(S(=O)(=O)N[C@H](C(=O)O)c2ccccc2)cc1', 'TGI', '> 100 µM'),
  ('C=C1C(=O)O[C@H]2[C@H]1CC/C(CNC(=O)Cc1c[nH]c3ccccc13)=C\CC[C@@]1(C)O[C@@H]21', 'TGI', '13.1 µM'),
  ('CCOC(=O)CN1C(=O)c2c(c(C)n(-c3ccccc3)c2C)C1=O', 'TGI', '> 100 µM'),
  ('Cc1cc(N(CCC#N)CCC#N)ccc1/C=C1N=C(/C=C\c2ccccc2)OC\1=O', 'TGI', '> 100 µM'),
  ('CC(C)[C@]12O[C@H]1[C@@H]1O[C@]13[C@]1(O[C@H]1C[C@H]1C4=C(CC[C@@]13C)C(=O)OC4)[C@@H]2O', 'TGI', '> 2.93 µM'),
  ('O=C(O)C/C(=C\c1ccco1)C(=O)O', 'TGI', '> 100 µM'),
  ('O=[N+]([O-])c1ccc(S(=O)(=O)Cc2ccccc2)c([N+](=O)[O-])c1', 'TGI', '3.94 µM'),
  ('CN1C(=O)CC(c2cccc(C3CC(=O)N(C)C3=O)n2)C1=O (configuration not stated)', 'TGI', '> 100 µM'),
  ('Nc1c(C(=O)c2cccc(CCCN3CCOCC3)c2)cnn1-c1ccc(F)cc1', 'TGI', '> 25 µM'),
  ('Cc1nc(-c2cccc(Nc3nc(-c4ccc(Cl)cc4)cs3)c2)cs1', 'TGI', '18.6 µM'),
  ('Cc1ccc(C2=Nc3cc(C)c(Cl)cc3S(=O)(=O)NN2)cc1', 'TGI', '> 100 µM'),
  ('CC1(C)CC23C4COC(=O)C2CCC1C3CC4=O (configuration not stated)', 'TGI', '21.9 µM'),
  ('CCOC(=O)c1c2c3c(cccc3[nH]c1=O)Sc1ncccc1-2', 'TGI', '> 100 µM'),
  ('Clc1ccc(CSC(Cn2ccnc2)c2ccc(Cl)cc2Cl)cc1 (configuration not stated)', 'TGI', '3.76 µM'),
  ('CN(C)C(Cc1cnc[nH]1)C(=O)N1CCCC1C(N)=O (configuration not stated)', 'TGI', '> 100 µM'),
  ('COc1cc(C(=O)/C=C/c2c(C)n([O-])c3ccc(C)cc3[n+]2=O)cc(OC)c1OC', 'TGI', '4.48 µM'),
  ('CC(=O)OC1=c2ccccc2=C(O)C2C1C=NN2C(C)=O (configuration not stated)', 'TGI', '> 100 µM'),
  ('Cc1c2cc[n+](C)cc2c(C)c2c1sc1ccccc12', 'TGI', '> 100 µM'),
  ('CCOC(=O)c1cnn2c1ncc1c(=O)n(NC(N)=O)ccc12', 'TGI', '> 100 µM'),
  ('CCOC(=O)C1(C(N)=O)C(=O)c2ccncc2C1=O (configuration not stated)', 'TGI', '> 100 µM');

====

# System: MOLT-4 leukemia
# test_name: NCI tumour cell line growth inhibition, 48 h; in the data active = GI50 below about 0.43 µM; inactive = the rest
Classes used: Yes = active, No = inactive

INSERT INTO measurements (item_smiles, label) VALUES
  ('O=C(Nc1cccc(-n2ccc3c(NC(=O)c4ccccc4)nccc32)c1)c1ccc(N2CCOCC2)c(C(F)(F)F)c1', 'Yes'),
  ('C=CC[n+]1c(/C=C/C=C2\N(C)c3ccccc3C2(C)C)sc2ccc(OC)cc21', 'Yes'),
  ('NCCNc1c2c(c(NCCN)c3c(CO)c[nH]c13)C(=O)c1ccccc1C2=O', 'No'),
  ('CCCCC[C@H](O)/C=C/[C@@H]1[C@@H](C/C=C\CCCC(=O)O)[C@@H](O)C[C@H]1O', 'No');

====

# System: ACHN renal
# test_name: NCI tumour cell line growth inhibition, 48 h
Lab note: anything with TGI at or over 40 µM counts as label 1; the rest go in label 0.

INSERT INTO measurements (molecule, label) VALUES
  ('O=C(Nn1c(-c2ccccc2)nc2ccccc2c1=O)c1ccc(CS)cc1', 'label 1'),
  ('O=[N+]([O-])c1nc(-c2ccccn2)[nH]c1[N+](=O)[O-]', 'label 1'),
  ('CC(C)(C)c1cc(CC2C(=O)c3ccccc3C2=O)cc(C(C)(C)C)c1O', 'label 1'),
  ('N#Cc1c(-c2ccccc2)nc(SCC2CO2)nc1N1CCOCC1 (stereo not drawn)', 'label 1'),
  ('CCOC(=O)c1ccc2[nH]c(-c3ccc(S(=O)(=O)F)cc3)cc(=O)c2c1', 'label 1'),
  ('Cc1cccc(C(C)C)c1NC(=O)C(=O)CC(=O)c1sc(Nc2ccccc2Cl)nc1C', 'label 1'),
  ('Cc1ccccc1C(=O)c1c(O)c2c(c(O)c1Br)CCCC2', 'label 0'),
  ('NC1=NC(=O)/C(=C/c2ccccc2[N+](=O)[O-])C(N)=N1', 'label 1'),
  ('O=C1/C(=C/c2ccccc2)CCCC1CN1CCCCC1 (stereo not drawn)', 'label 0'),
  ('CCSCC1CC(O)(c2ccccc2)C(c2ccccc2)C(c2ccc(Cl)cc2)O1 (stereo not drawn)', 'label 0'),
  ('O=C[C@@H](CO)O[C@H](C=O)c1c[nH]c(=O)[nH]c1=O', 'label 1'),
  ('CO/N=C(\C)c1ccc(Nc2c3ccccc3nc3occc23)cc1', 'label 0'),
  ('C=CCn1c(=O)c2ccccc2[n+]2c(C)c(C(=O)OCC)sc12', 'label 1');
